Entry source: PubChem BioAssay AID504847

# target_desc: Vitamin D3 receptor (Homo sapiens) (UniProt P11473)
# Sequence (P11473 whole entry, looked up): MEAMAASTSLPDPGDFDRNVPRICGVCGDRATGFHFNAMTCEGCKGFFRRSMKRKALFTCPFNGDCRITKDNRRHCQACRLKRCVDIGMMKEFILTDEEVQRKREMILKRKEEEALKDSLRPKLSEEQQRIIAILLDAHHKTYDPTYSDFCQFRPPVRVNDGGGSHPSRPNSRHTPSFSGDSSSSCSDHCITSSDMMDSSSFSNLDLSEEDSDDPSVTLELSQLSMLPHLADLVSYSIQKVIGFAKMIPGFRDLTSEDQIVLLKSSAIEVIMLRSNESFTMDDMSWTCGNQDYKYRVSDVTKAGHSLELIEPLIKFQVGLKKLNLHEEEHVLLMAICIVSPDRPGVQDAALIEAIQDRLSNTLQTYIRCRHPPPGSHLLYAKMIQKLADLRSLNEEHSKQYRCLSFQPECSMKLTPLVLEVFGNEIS
# experiment: Inhibitors of the vitamin D receptor (VDR): qHTS; further: potency means the concentration at half of the fitted maximal effect
# particulars: VDR-SRC2-3 peptide fluorescence polarization, 2 h
The whole screen tested about 400,000 compounds, of which about 3,700 (0.93%) were called active. About 3% were inconclusive and are not listed. This excerpt belongs to a sample that is enriched for actives.
property_measured: Potency

Look over these answered cases.
>  <molecule>
O=C(NC1=CC(=O)c2ccccc2C1=O)c1ccccc1

>  <Potency>
11.2 µM (active)

$$$$
>  <molecule>
O=S(=O)(O)c1cc2onnc2c2ccccc12

>  <Potency>
17.8 µM (active)

$$$$
>  <molecule>
C=C1C(=O)C23C(O)C1CCC2[C@]12COC3(O)C(O)C1C(C)(C)CC[C@H]2O (some centres not stated)

>  <Potency>
14.1 µM (active)

$$$$
>  <molecule>
Cc1ccnc(-n2sc3ccccc3c2=O)n1

>  <Potency>
25.1 µM (active)

$$$$
>  <molecule>
COc1ccc(OCc2n[nH]c(=S)n2N)cc1

>  <Potency>
35.5 µM (active)

$$$$
>  <molecule>
CCCCS(=O)(=O)c1oc(-c2cccs2)nc1S(=O)(=O)c1ccccc1

>  <Potency>
10 µM (active)

$$$$

State the recorded Potency for this entry: `O=C(Cn1nc(CNc2ccc(Cl)cc2)[n+]2c1CCCCC2)c1ccc(Cl)cc1`
79.4 µM (active)

Form field: reported Potency of `CCCCc1nn(-c2ccccc2C(F)(F)F)c(=O)n1Cc1ccc(-c2ccccc2S(=O)(=O)NC(=O)c2sccc2C)cc1`
44.7 µM (active)

Look up Potency: `O=[N+]([O-])c1c(NCCO)cc(Sc2nc3ccccc3s2)c2nonc12`
14.1 µM (active)

Which Potency is reported for this molecule? CCOC(=O)N1CCN(C(c2cccnc2)c2ccc3cccnc3c2O)CC1 (configuration not stated)
39.8 µM (active)

Which Potency value belongs to `O=C(/C=C/c1ccc(Cl)cc1Cl)c1cccnc1` ?
20 µM (active)

Looking for the measured Potency of `COCCNC(=O)Nc1ccc2nc(-c3ccco3)c(-c3ccco3)nc2c1` , can you help?
79.4 µM (active)

For `O=C(Oc1ccccc1C(=S)N1CCCCC1)c1cc([N+](=O)[O-])cc([N+](=O)[O-])c1` , what is its reported Potency?
89.1 µM (active)

What value of Potency has been reported for the following molecule? `Cc1ccc(Cn2c(=O)n(CCCC(=O)NCc3ccccc3Cl)c(=O)c3ccccc32)cc1`
89.1 µM (active)

Requested read-out: Potency. Entry: `O=c1[nH]c2ccccc2n2c(-c3ccccc3)nnc12`
12.6 µM (active)

Tell me the measured Potency of `CCC(CC)c1nnc(NC(=O)C2CCN(C(=O)c3ccco3)CC2)s1` , please.
89.1 µM (active)

Data request, read-out Potency, for `Oc1c(Cl)cc(Cl)c(Cl)c1Cc1c(O)c(Cl)cc(Cl)c1Cl`
44.7 µM (active)

Consider the molecule `CCN1/C(=C/C(=S)Nc2ccccc2)Sc2ccccc21` and give its measured Potency.
70.8 µM (active)

Please look up its Potency: `Oc1c(C=Nc2cccc3nsnc23)ccc2ccccc12`
79.4 µM (active)

Given the entry `Cc1cccc(Oc2c([N+](=O)[O-])c(=O)n(C)c3ccccc23)c1` , report its measured Potency.
39.8 µM (active)

Please give the measured Potency for this molecule: `C=CCOc1ccc(/C=C2/C(=O)ON=C2C)cc1OCC`
79.4 µM (active)

GET /values?readout=Potency&item= Cc1cc(C)cc(Oc2nc3c(C)cccn3c(=O)c2/C=C(\C#N)C(=O)NC2CCS(=O)(=O)C2)c1 (configuration not stated)
20 µM (active)

----------
# target_desc: Vitamin D3 receptor (Homo sapiens) (UniProt P11473)
# experiment: Inhibitors of the vitamin D receptor (VDR): qHTS; on max response, negative = inhibition: on the % scale 0 is the no-effect control and ±100 the full control effect
# particulars: VDR-SRC2-3 peptide fluorescence polarization, 2 h; active compounds read low
About 3,700 (0.93%) of roughly 400,000 compounds were called active. Roughly 3% stayed inconclusive and do not appear here. For the sample, actives were picked, then their nearest neighbours and some compounds at random.
property_measured: max response, negative = inhibition (%)
A number alone suffices; assume %.

>  <compound>
O=S(=O)(c1ccccc1)c1nc(-c2ccc(Cl)cc2Cl)oc1N1CCCCC1

>  <measurement_units>
%

>  <max response, negative = inhibition>
1.4

$$$$
>  <compound>
C=C(C(C)=O)C(O)c1cccs1 (stereo unspecified)

>  <measurement_units>
%

>  <max response, negative = inhibition>
-7.76

$$$$
>  <compound>
O=C(CCN1CCN(C/C=C/c2ccccc2)CC1)Nc1ccccc1Cl

>  <measurement_units>
%

>  <max response, negative = inhibition>
-1.78

$$$$
>  <compound>
COc1ccc(Cl)cc1NC(=O)CSc1nc(=O)[nH]c2c1CCCC2

>  <measurement_units>
%

>  <max response, negative = inhibition>
-3.46

$$$$
>  <compound>
Nc1ncc(S(=O)(=O)Nc2ccc(OC(F)(F)F)cc2)cn1

>  <measurement_units>
%

>  <max response, negative = inhibition>
5.75

$$$$

# max response, negative = inhibition lookup, item `O=c1n(Cc2cccc(C(F)(F)F)c2)c2ccccc2c2nc(-c3ccccc3)nn12`
-21.7

Fill in the blank: the reported max response, negative = inhibition of `Cn1c(N)c(C(=O)COC(=O)/C=C/c2cccc(C(F)(F)F)c2)c(=O)n(C)c1=O` is ____.
8.93

----------
# target_desc: Vitamin D3 receptor (Homo sapiens) (UniProt P11473)
# experiment: Inhibitors of the vitamin D receptor (VDR): qHTS; on max response, negative = inhibition: on the % scale 0 is the no-effect control and ±100 the full control effect
# particulars: VDR-SRC2-3 peptide fluorescence polarization, 2 h; active compounds read low
Among all 400,000 compounds or so, about 3,700 (0.93%) were called active. Inconclusive results (about 3%) are left out. Only a selection was taken, and actives are over-represented in it overall.
property_measured: max response, negative = inhibition (%)
Quick reminder: number only, in %, skip the unit.

>  <compound>
CN(Cc1ccccc1)C(=O)c1cc2c(=O)n(C)c3ccccc3c2s1

>  <measurement_units>
%

>  <quantitative_readout>
-5.87

$$$$

Now look at this one.
Query: max response, negative = inhibition; subject: `O=C(c1csnn1)N1CCC[C@@]2(CCN(Cc3nccs3)C2)C1`
1.05

----------
# target_desc: Vitamin D3 receptor (Homo sapiens)
# experiment: Inhibitors of the vitamin D receptor (VDR): qHTS; on max response, negative = inhibition: on the % scale 0 is the no-effect control and ±100 the full control effect
# particulars: VDR-SRC2-3 peptide fluorescence polarization, 2 h; active compounds read low
Hit rate of the full screen: of about 400,000 compounds, about 3,700 (0.93%) were called active. Another 3% or so got no clear call; they are omitted. Shown is part of a subset that was picked to be rich in actives.
property_measured: max response, negative = inhibition (%)
Please state the figure in %; there is no need to write the unit.

>  <molecule>
CCC(=O)N1CCc2cc(S(=O)(=O)NC(C(=O)NCCc3ccc(C)cc3)C(C)C)ccc21 (stereo not given)

>  <property_measured>
max response, negative = inhibition

>  <quantitative_readout>
-2.72

$$$$
>  <molecule>
Cc1ccc(NC(=O)C2CCN(S(=O)(=O)c3cc(-c4noc(C)n4)ccc3C)CC2)c(C)c1

>  <property_measured>
max response, negative = inhibition

>  <quantitative_readout>
14.7

$$$$
>  <molecule>
CC1(C)O[C@@H]2C[C@@H]3[C@H]4C[C@@H](F)C5=CC(=O)C=C[C@]5(C)[C@@]4(F)[C@@H](O)C[C@]3(C)[C@]2(C(=O)CO)O1

>  <property_measured>
max response, negative = inhibition

>  <quantitative_readout>
1.68

$$$$
>  <molecule>
CCOc1ccc(S(=O)(=O)N2CCN(C(=S)NCC3CCCO3)CC2)cc1 (stereo not given)

>  <property_measured>
max response, negative = inhibition

>  <quantitative_readout>
28.2

$$$$
>  <molecule>
Nc1ncnc2c1c(I)cn2[C@@H]1C[C@H](N)[C@@H](O)[C@H]1O

>  <property_measured>
max response, negative = inhibition

>  <quantitative_readout>
-8.19

$$$$
>  <molecule>
O=C(/C=C/c1cccc(F)c1)NC1CC1

>  <property_measured>
max response, negative = inhibition

>  <quantitative_readout>
0.0804

$$$$
>  <molecule>
COc1cccc(Cn2c(=O)c(-c3ccccc3)nc3cnc(OC)nc32)c1

>  <property_measured>
max response, negative = inhibition

>  <quantitative_readout>
-7.36

$$$$
>  <molecule>
COc1cc(/C=C2\SC(=O)NC2=O)ccc1OCc1ccc(Cl)nc1

>  <property_measured>
max response, negative = inhibition

>  <quantitative_readout>
3.39

$$$$
>  <molecule>
CN(C)c1ccc(/C=N/NC(=O)C(O)c2ccc(Br)cc2)cc1 (stereo not given)

>  <property_measured>
max response, negative = inhibition

>  <quantitative_readout>
5.61

$$$$
>  <molecule>
Cc1ccc(C2c3[nH]c4ccccc4c3CCN2C(=O)c2cccc(C)c2)cc1 (stereo not given)

>  <property_measured>
max response, negative = inhibition

>  <quantitative_readout>
4

$$$$

Entry under review: `CC(C)(C)OC(=O)C1=C(CO)CS[C@@H]2[C@H](NC(=O)Cc3ccccc3)C(=O)N12` . Reported max response, negative = inhibition?
-17.3

Sample `COCCNC(=O)CSc1nc(-c2ccccc2)[nH]c1-c1ccc(C)cc1` — what was its max response, negative = inhibition?
-12.4

Consider the molecule shown here: `CC(C)(C)c1ccc(S(=O)(=O)N2CCN(C(=O)c3cc(-c4ccc(Br)cc4)n[nH]3)CC2)cc1` What is its recorded max response, negative = inhibition?
0.49

Given the entry `C#CCOc1ccccc1/C=C1/C(=O)ON=C1C` , report its measured max response, negative = inhibition.
-13.5

Requested field: max response, negative = inhibition. Item: C=CCOc1ccc(/C=N/NC(=O)C(C)Sc2ccccn2)cc1OCC (stereo not given)
-3.04
